Kindly supply the reported cell count values for the records listed here.
test: inhibitors of TNFa-induced NFkB p65 translocation, primary screen, imaging, HUVEC, MLSMR starter and 10KST1 sets (AID 438); settings: HUVEC TNFa-induced p65 nuclear translocation; measured here: nuclei count (cytotoxicity indicator), at 2.08 µM;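 further: compound added about 3h40 before a 20 min TNFalpha stimulation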

// query cell count value for entry O=C(O)c1ccc2c(c1)N(Cc1ccccc1F)C(=O)c1ccccc1S2=O (configuration not stated)
585

// query cell count value for entry C=CCN(CC=C)c1nc2ccccc2nc1C(C#N)C(=O)OC(C)C (configuration not stated)
639

// query cell count value for entry CCS(=O)(=O)N1CCCC(c2nc(-c3cccc(OC)c3)no2)C1 (configuration not stated)
730

// query cell count value for entry O=C(CN1C(=O)CCS(=O)(=O)c2ccccc21)NCc1ccc(F)cc1
529

// query cell count value for entry COC(=O)c1ccccc1OCC(=O)NC1CCCCC1
400

// query cell count value for entry NC(=O)C(Cc1ccccc1)NS(=O)(=O)c1ccc(N2CCCC2=O)cc1 (configuration not stated)
570

// query cell count value for entry CC(C)CCNc1nc2c(cc1C#N)COC(C)(C)C2
536

// query cell count value for entry CCOc1ccc(Cn2nnc(C(=O)NCc3ccc(OC)cc3)c2N)cc1
509

// query cell count value for entry CC1(C)NC(=O)N(CN2C(=O)NC(C)(C)C2=O)C1=O
579

// query cell count value for entry CCOC(=O)CSc1nc(N2CCOCC2)c2c(c1C#N)CC(C)(C)N(C)C2
531

// query cell count value for entry CC(=O)N(Cc1ccccc1)c1ccc(C(=O)O)cc1
486

// query cell count value for entry CCOC(=O)c1cc(-c2ccc(N)cc2)sc1N
588

// query cell count value for entry CCN(CC)C(=O)CSc1nnc(-c2cc(OC)cc(OC)c2)o1
733

// query cell count value for entry Cc1nc(NC(=O)c2ccccc2)sc1-c1csc(NCc2ccco2)n1
301

// query cell count value for entry CCCCNC(=O)OCCNC(=O)NC
314

// query cell count value for entry CCN(CC)CCn1c(=N)n(CCO)c2ccccc21
592

// query cell count value for entry CN(C)S(=O)(=O)Nc1ccc(Br)cc1F
688
